Measured quantity: melting point

Worked set:
>>> reported_measurement("Clc1ccc2c(c1)c(-c1ccccc1)nc1nncn12")
"295 to 297 °C"
>>> reported_measurement("CCOC(=O)c1nnc2ccc(C(C)=O)cc2c1O")
"250 to 252 °C"
>>> reported_measurement("COC(=O)c1nn(C)nc1CO")
"112 to 113 °C"
>>> reported_measurement("CCOCn1nccc1C(O)c1ccc(OC)c(Cl)c1Cl (configuration not stated)")
"155 to 157 °C"
>>> reported_measurement("Cn1c(CCN2CCN(c3ccc(Cl)cc3)CC2)nc2ccc3ccccc3c21")
"213 to 215 °C"

Measured melting point of Cc1ccc(S(=O)(=O)Nc2cc3c(c(C(=O)O)c2)NC(c2ccccc2)CC3)cc1 (configuration not stated) : 219 to 220 °C

Measured melting point of "Cc1nn(C)c(NN)c1[N+](=O)[O-]" : 177 to 179 °C

Measured melting point of "COc1ccc2c(C(C)=O)noc2c1" : 64 to 67 °C

Measured melting point of "CCOc1cc2ncc(C#N)c(Nc3ccc4c(=O)[nH][nH]c(=O)c4c3)c2cc1OCC" : > 270 °C

Measured melting point of "c1ccc2c(c1)CNc1cccnc1O2" : 172 to 174 °C

Measured melting point of "Cc1ccc2c(C(=O)O)csc2c1" : 205 to 209 °C

Measured melting point of "O=c1c([N+](=O)[O-])c(O)c2cccnc2n1Cc1ccccc1" : 182 °C

Measured melting point of Cc1cc([N+](=O)[O-])c(CC2NC(=O)NC2=O)cc1Cl (configuration not stated) : 211 to 214 °C

Measured melting point of CCC1CC2C3CCc4cc(OC)ccc4C3CCC2(CC)C1=O (configuration not stated) : 101 to 102 °C

Measured melting point of "COc1ccc(CNc2ccccc2C(=O)Nc2ccc(Cl)c(C(F)(F)F)c2)cn1" : 108 to 110 °C

Measured melting point of "CN(C)c1nc2cc(NC(=O)c3c(C(=O)N4CCC4)cnn3C)ccn2n1" : 240 to 241 °C

Measured melting point of "O=Cc1ccn(-c2cc3c(cc2C(F)(F)F)[nH]c(=O)c(=O)n3CC(=O)O)c1" : > 250 °C

Measured melting point of CC(C(=O)c1ccccc1)N1CCN(c2nc3nccc(-c4ccncc4)n3n2)CC1 (configuration not stated) : 142 to 144 °C

Measured melting point of "CCOC(=O)C(CCCCCCN1C(=O)c2ccccc2C1=O)(NC(C)=O)C(=O)OCC" : 68.5 to 70 °C

Measured melting point of "O=C1CCCc2ccc(O)cc21" : 170 to 173 °C

Measured melting point of "O=C(Nc1cccnc1)N1CCN(c2ccnc(-c3cccc(F)c3F)n2)CC1" : 208 to 209 °C

Measured melting point of "COC(=O)Cc1ccccc1NC(=S)N(C)C" : 110 to 113 °C
